Entry source: ChEMBL document CHEMBL1130313

Reported IC50 is given for each of the following compounds.
# Test system: SK-OV-3
# method summary: Cytotoxic potency required to inhibit SKOV-3 cell growth 50%
# Format: functional, cell-based
# test conditions: Homo sapiens
observation type: IC50 (µM)

CN(C)CCNC(=O)c1ccc(NCCN(C)C)c2c(O)c3cc([N+](=O)[O-])ccc3nc12 : 0.21
CN(C)CCNC(=O)c1ccc(NCCNCCO)c2c(O)c3ccccc3nc12 : 0.17

====

# Test system: Calf thymus DNA
# method summary: Inhibitory concentration against ethidium:calf thymus DNA (1.26:1) binding at pH 5
# Type: nucleic-acid assay
# test conditions: Bos taurus
Reported C50 values follow for various compounds
observation type: C50 (µM)

N=C(N)c1ccc(/N=N/Nc2ccc(C(=N)N)cc2)cc1 : 4.4
CN(C)CCNC(=O)c1ccc(N(C)CCN(C)C)c2c(O)c3ccccc3nc12 : 4.8
CN(C)CCNC(=O)c1ccc(NCCN(C)C)c2c(O)c3cc([N+](=O)[O-])ccc3nc12 : 0.61
Cn1cc(NC(=O)c2cc(NC(=O)c3cc(NC=O)cn3C)cn2C)cc1C(=O)NCCC(=N)N : 5
O=C(NCCN1CCOCC1)c1ccc(NCCN2CCOCC2)c2c(O)c3ccccc3nc12 : 16
c1ccc2nc3ccccc3cc2c1 : 142
CCN(CC)CCNC(=O)c1ccc(NCCN(CC)CC)c2c(O)c3ccccc3nc12 : 20
